Value source: ChEMBL document CHEMBL2158000

Item-by-item account of Ratio IC50
species: Homo sapiens; experiment: Selectivity index, ratio of IC50 for human recombinant MAOA to IC50 for human recombinant MAOB

Compound structure	Ratio IC50
O=C1NC(=O)c2cc(SCc3ccccc3)ccc21	427
O=C1NC(=O)c2cc(SCc3ccc(Cl)cc3)ccc21	90
O=C1NC(=O)c2cc(SC3CCCCC3)ccc21	5.8
O=C1NC(=O)c2cc(Sc3ccc(Br)cc3)ccc21	2.8
COc1ccc(CSc2ccc3c(c2)C(=O)NC3=O)cc1	82
O=C1NC(=O)c2cc(SCc3ccc(F)cc3)ccc21	141
O=C1NC(=O)c2cc(SCCc3ccccc3)ccc21	76
O=C1NC(=O)c2cc(SCc3ccc(Br)cc3)ccc21	37
CC(C)CCSc1ccc2c(c1)C(=O)NC2=O	26
O=C1NC(=O)c2cc(Sc3ccccc3)ccc21	8.1
O=C1NC(=O)c2cc(Sc3ccc(Cl)cc3)ccc21	3.7
